Test system: Escherichia coli
Test: Inhibition of Escherichia coli MetAP at 10 uM after 15 mins by fluorescence analysis
Activity calls are given as the source filed them. How the calls were made is not given here.
Property label: inhibition

Below: 5 compounds and their reported inhibition.
O=C1NC(=S)S/C1=C\c1cnc[nH]1; 18%
O=C1NC(=S)N/C1=C\c1cccs1; inactive
NC(=O)CC[C@@H]1NC(=S)NC1=O; inactive
N#Cc1ccc(/C=C2\NC(=S)NC2=O)cc1; inactive
O=C1NC(=S)N/C1=C\c1cc(Br)cs1; 11%

Could you report inhibition for every entry in the following list?
1. O=C1NC(=S)N/C1=C\C1CCCCC1
2. CC(=O)N1C(=S)NC(=O)[C@@H]1CC(C)C
3. COc1ccc(/C=C2\SC(=S)NC2=O)cc1
4. C/C(=C1/SC(=S)NC1=O)c1cccs1
5. O=C1NC(=S)N/C1=C\c1ccc(Br)s1
6. O=C1NC(=S)N[C@H]1Cc1ccccc1
7. Cc1ccc(/C=C2\NC(=S)NC2=O)cc1
8. CC(=O)n1cc(/C=C2\NC(=S)NC2=O)c2ccccc21

1: 20%; 2: 13%; 3: inactive; 4: inactive; 5: 10%; 6: 12%; 7: 15%; 8: 15%

Please state inhibition for every compound in the list that follows.
1. O=C1NC(=O)/C(=C/c2sccc2Cl)S1
2. O=C1NC(=O)/C(=C/c2ccc(Br)s2)N1

inactive
inactive
